# System: A388;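 also: growth inhibition of human A388 cells, read out with a cell viability assay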
# protocol: cells
# Assay type: functional, cell-based, Homo sapiens
# experimental.parameters: Homo sapiens, A388
# Description: SANGER: Inhibition of human A388 cell growth in a cell viability assay.
Exercise: for every item that follows, state its recorded IC50.
Note: unit µM is implicit; provide only the numeric part.

compound Cc1cc([N+](=O)[O-])ccc1NS(=O)(=O)c1cc(Cl)ccc1Cl , IC50 observed: 4.93

Nc1ccn([C@@H]2O[C@H](CO)[C@@H](O)C2(F)F)c(=O)n1 [GEMCITABINE] yielded IC50 of 0.00136

Per the records, this compound ( COc1cc(N2CCN(C)CC2)ccc1Nc1ncc2c(n1)N(C)c1ccccc1C(=O)N2C ) has IC50 equal to 6.57

Record CC(C)c1ccccc1Cc1cc(C(=O)Nc2ccc(S(=O)(=O)c3ccccc3C(C)(C)C)cc2)c(O)c(O)c1O . Reported IC50: 0.167
